Assignment: determine reported selectivity ratio for the given compounds.
experiment notes: Selectivity index, ratio of EC50 for human HEK cells to EC50 for wild type Trypanosoma brucei brucei Lister 427
Type: toxicity, cell-based, HEK293
run parameters: HEK cells, read-out: Ratio EC50

Item: COc1ccc([P+](Cc2ccc(C(=O)c3ccc(C[P+](c4ccc(OC)cc4)(c4ccc(OC)cc4)c4ccc(OC)cc4)cc3)cc2)(c2ccc(OC)cc2)c2ccc(OC)cc2)cc1.[Br-].[Br-] | selectivity ratio: 529

Item: COc1ccccc1[P+](Cc1ccc(C(=O)c2ccccc2)cc1)(c1ccccc1OC)c1ccccc1OC.[Br-] | selectivity ratio: 306

Item: O=C(c1ccc(C[P+](c2ccccc2)(c2ccccc2)c2ccccn2)cc1)c1ccc(C[P+](c2ccccc2)(c2ccccc2)c2ccccn2)cc1.[Br-].[Br-] | selectivity ratio: > 400

Item: CC(C)[P+](Cc1ccc(Oc2ccc(C[P+](c3ccccc3)(c3ccccc3)C(C)C)cc2)cc1)(c1ccccc1)c1ccccc1.[Br-].[Br-] | selectivity ratio: > 900

Item: C[P+](C)(Cc1ccc(Oc2ccc(C[P+](C)(C)c3ccccc3)cc2)cc1)c1ccccc1.[Br-].[Br-] | selectivity ratio: > 40

Item: O=C(c1ccc(C[P+](c2ccc(C(F)(F)F)cc2)(c2ccc(C(F)(F)F)cc2)c2ccc(C(F)(F)F)cc2)cc1)c1ccc(C[P+](c2ccc(C(F)(F)F)cc2)(c2ccc(C(F)(F)F)cc2)c2ccc(C(F)(F)F)cc2)cc1.[Br-].[Br-] | selectivity ratio: > 60

Item: Cc1ccc([P+](Cc2ccc(Oc3ccccc3)cc2)(c2ccc(C)cc2)c2ccc(C)cc2)cc1.[Br-] | selectivity ratio: 1140

Item: Fc1c(F)c(F)c([P+](Cc2ccc(Oc3ccc(C[P+](c4ccccc4)(c4ccccc4)c4c(F)c(F)c(F)c(F)c4F)cc3)cc2)(c2ccccc2)c2ccccc2)c(F)c1F.[Br-].[Br-] | selectivity ratio: > 10

Item: C[P+](C)(Cc1ccc(CCc2ccc(C[P+](C)(C)c3ccccc3)cc2)cc1)c1ccccc1.[Br-].[Br-] | selectivity ratio: > 110

Item: CC(C)C[P+](Cc1ccc(Cc2ccc(C[P+](CC(C)C)(CC(C)C)CC(C)C)cc2)cc1)(CC(C)C)CC(C)C.[Br-].[Br-] | selectivity ratio: > 429

Item: Cc1ccc([P+](Cc2ccc(Cc3ccc(C[P+](c4ccc(C)cc4)(c4ccc(C)cc4)c4ccc(C)cc4)cc3)cc2)(c2ccc(C)cc2)c2ccc(C)cc2)cc1.[Br-].[Br-] | selectivity ratio: 2900

Item: O=C(c1ccc(C[P+](c2ccccc2)(c2ccccc2)c2ccccc2)cc1)c1ccc(C[P+](c2ccccc2)(c2ccccc2)c2ccccc2)cc1.[Br-].[Br-] | selectivity ratio: > 1250

Item: CCC[P+](Cc1ccc(Oc2ccc(C[P+](CCC)(c3ccccc3)c3ccccc3)cc2)cc1)(c1ccccc1)c1ccccc1.[Br-].[Br-] | selectivity ratio: 914

###

Assignment: determine reported pKi for the given compounds.
experiment notes: Inhibition of Trypanosoma brucei brucei HAPT1 assessed as [3H]-pentamidine uptake after 60 secs by scintillation counting
Note on pKi: it is the negative log10 of concentration, concentration in mol/L.

Item: CCCCC[P+](CCCCC)(CCCCC)Cc1ccc(C(=O)c2ccc(C[P+](CCCCC)(CCCCC)CCCCC)cc2)cc1.[Br-].[Br-] | pKi: 5.28

Item: CC(=O)N(c1ccc(C[P+](c2ccc(C)cc2)(c2ccc(C)cc2)c2ccc(C)cc2)cc1)c1ccc(C[P+](c2ccc(C)cc2)(c2ccc(C)cc2)c2ccc(C)cc2)cc1.[Br-].[Br-] | pKi: 5.04

Item: N=C(N)c1ccc(OCCCCCOc2ccc(C(=N)N)cc2)cc1 [PENTAMIDINE] | pKi: 7.44

Item: CCCCCC[P+](CCCCCC)(CCCCCC)Cc1ccc(Oc2ccc(C[P+](CCCCCC)(CCCCCC)CCCCCC)cc2)cc1.[Br-].[Br-] | pKi: 4.28

###

experiment notes: Selectivity index, ratio of EC50 for human HEK cells to EC50 for wild type Trypanosoma brucei brucei Lister 427
Type: toxicity, cell-based, HEK293
run parameters: HEK cells, read-out: Ratio EC50
recorded endpoint: selectivity ratio

Item: CC[P+](Cc1ccc(C(=O)c2ccc(C[P+](CC)(c3ccccc3)c3ccccc3)cc2)cc1)(c1ccccc1)c1ccccc1.[Br-].[Br-] | selectivity ratio: > 300

Item: O=C(c1ccc(C[P+](c2cccs2)(c2cccs2)c2cccs2)cc1)c1ccc(C[P+](c2cccs2)(c2cccs2)c2cccs2)cc1.[Br-].[Br-] | selectivity ratio: 785

Item: CC(C)C[P+](Cc1ccc(Oc2ccc(C[P+](CC(C)C)(CC(C)C)CC(C)C)cc2)cc1)(CC(C)C)CC(C)C.[Br-].[Br-] | selectivity ratio: > 507

Item: O=C(c1ccc(C[P+](c2ccc(F)cc2)(c2ccc(F)cc2)c2ccc(F)cc2)cc1)c1ccc(C[P+](c2ccc(F)cc2)(c2ccc(F)cc2)c2ccc(F)cc2)cc1.[Br-].[Br-] | selectivity ratio: > 350

###

experiment notes: Selectivity index, ratio of EC50 for human HEK cells to EC50 for wild type Trypanosoma brucei brucei Lister 427
Assay type: toxicity, cell-based, HEK293
run parameters: HEK cells, read-out: Ratio EC50
recorded endpoint: selectivity ratio

Item: CC[P+](CC)(Cc1ccc(C(=O)c2ccc(C[P+](CC)(CC)c3ccccc3)cc2)cc1)c1ccccc1.[Br-].[Br-] | selectivity ratio: > 35

Item: CC[P+](CC)(CC)Cc1ccc(Oc2ccc(C[P+](CC)(CC)CC)cc2)cc1.[Br-].[Br-] | selectivity ratio: > 8

Item: O=C(c1ccc(C[P+](C2CCCCC2)(C2CCCCC2)C2CCCCC2)cc1)c1ccc(C[P+](C2CCCCC2)(C2CCCCC2)C2CCCCC2)cc1.[Br-].[Br-] | selectivity ratio: > 2100

Item: Cc1ccc([P+](Cc2ccc(Cc3ccc(C[P+](c4ccccc4)(c4ccccc4)c4ccc(C)cc4)cc3)cc2)(c2ccccc2)c2ccccc2)cc1.[Br-].[Br-] | selectivity ratio: > 1250

###

experiment notes: Inhibition of Trypanosoma brucei brucei LAPT1 assessed as [3H]-pentamidine uptake after 120 secs by scintillation counting
Assignment: determine reported Ki for the given molecules.

Item: CCCCCC[P+](CCCCCC)(CCCCCC)Cc1ccc(Cc2ccc(C[P+](CCCCCC)(CCCCCC)CCCCCC)cc2)cc1.[Br-].[Br-] | Ki: 9.5 µM

Item: CCCCC[P+](CCCCC)(CCCCC)Cc1ccc(C(=O)c2ccc(C[P+](CCCCC)(CCCCC)CCCCC)cc2)cc1.[Br-].[Br-] | Ki: 2.2 µM

Item: N=C(N)c1ccc(OCCCCCOc2ccc(C(=N)N)cc2)cc1 | Ki: 56.2 µM

Item: CCCCCC[P+](CCCCCC)(CCCCCC)Cc1ccc(C(=O)c2ccc(C[P+](CCCCCC)(CCCCCC)CCCCCC)cc2)cc1.[Br-].[Br-] | Ki: 25 µM

Item: CCCCCC[P+](CCCCCC)(CCCCCC)Cc1ccc(Oc2ccc(C[P+](CCCCCC)(CCCCCC)CCCCCC)cc2)cc1.[Br-].[Br-] | Ki: 7.2 µM

Item: Cc1ccc([P+](Cc2ccc(Cc3ccc(C[P+](c4ccccc4)(c4ccccc4)c4ccc(C)cc4)cc3)cc2)(c2ccccc2)c2ccccc2)cc1.[Br-].[Br-] | Ki: 20 µM

Item: Cc1ccc(C[P+](c2ccccc2)(c2ccccc2)c2ccccc2)cc1.[Br-] | Ki: 25 µM

###

experiment notes: Selectivity index, ratio of EC50 for rat L6 cells to EC50 for Trypanosoma brucei rhodesiense STIB900
Type: toxicity, cell-based
run parameters: L6 cells, read-out: Ratio EC50
Assignment: determine reported selectivity ratio for the given compounds.
Give a plain numeric answer without units written out.

Item: O=C(c1ccc(C[P+](c2cccs2)(c2cccs2)c2cccs2)cc1)c1ccc(C[P+](c2cccs2)(c2cccs2)c2cccs2)cc1.[Br-].[Br-] | selectivity ratio: 58

Item: Cc1cccc([P+](Cc2ccc(Cc3ccc(C[P+](c4cccc(C)c4)(c4cccc(C)c4)c4cccc(C)c4)cc3)cc2)(c2cccc(C)c2)c2cccc(C)c2)c1.[Br-].[Br-] | selectivity ratio: 4

Item: Cc1ccc([P+](Cc2ccc(C(=O)c3ccccc3)cc2)(c2ccc(C)cc2)c2ccc(C)cc2)cc1.[Br-] | selectivity ratio: 16.7

###

experiment notes: Selectivity index, ratio of EC50 for human HEK cells to EC50 for wild type Trypanosoma brucei brucei Lister 427
Type: toxicity, cell-based, HEK293
run parameters: HEK cells, read-out: Ratio EC50
recorded endpoint: selectivity ratio

Item: C[P+](C)(Cc1ccc(C(=O)c2ccccc2)cc1)c1ccccc1.[Br-] | selectivity ratio: > 7

Item: Cc1ccc([P+](Cc2ccc(S(=O)(=O)c3ccc(C[P+](c4ccc(C)cc4)(c4ccc(C)cc4)c4ccc(C)cc4)cc3)cc2)(c2ccc(C)cc2)c2ccc(C)cc2)cc1.[Br-].[Br-] | selectivity ratio: > 1300

Item: CC[P+](CC)(CC)Cc1ccc(Cc2ccc(C[P+](CC)(CC)CC)cc2)cc1.[Br-].[Br-] | selectivity ratio: > 14
